experiment: gradient 5% acetonitrile 3 min, to 50% in 2 min, to 85% in 15 min, held 3 min, 100 µL/min; conditions: column: Zorbax Extend-C18 2.1 x 50 mm; eluents: water / acetonitrile, 0.1% formic acid
assay_readout: RP-LC retention time (s)

CCOc1ccc(C(=O)N2C[C@H](c3nc(-c4ccncc4)no3)[C@@H](C)C2)cc1; 838
CC(C)c1nnc2n1CCN(C(=O)c1ccc(Cl)s1)C2; 661
CCc1nc2cccnc2n1CCN1CCN(C(=O)Nc2ccc3c(c2)OCCO3)CC1; 590
COC[C@@H]1CN(S(=O)(=O)c2ccc(C(C)C)cc2)C[C@H]1c1ccccn1; 895
CC1CCN(c2cc(-c3nccn3CC(=O)NC3CCCCC3)ccn2)CC1; 675
Cc1cc2c(cc1S(=O)(=O)N1CCCC1C(=O)Nc1ccc(F)cc1F)OCC(=O)N2 (stereo not drawn); 774
CCn1c(=O)n(CC)c2cc(S(=O)(=O)c3ccccc3)c(NC(C)=O)cc21; 715
CCCC(=O)N1CCCC(COc2ccc(C(=O)NC(C)C)cc2)C1 (stereo not drawn); 784

Measured values drawn from the METLIN SMRT retention time set (Domingo-Almenara et al. 2019) for this set.
